# Measurement description: in vitro
# Condition label: human, permeability, RA-treated cells without co-culture
Readout label: Papp A→B at 1 h (×10⁻⁶ cm/s)

{"columns": ["Structure notation", "Readout label", "Units symbol", "Result"],
 "data": [
  ["COc1cc2c(c(OC)c1OC)-c1ccc(OC)c(=O)cc1[C@@H](NC(C)=O)CC2", "Papp A→B at 1 h", "×10⁻⁶ cm/s", 0.383]
]}

----------
# Measurement description: in vitro
# Condition label: human, permeability, optimized co-culture conditions (pericyte/hNPC), RA-treated
Readout label: Papp A→B at 1 h (×10⁻⁶ cm/s)

{"columns": ["Compound", "Result"],
 "data": [
  ["COc1cc2c(c(OC)c1OC)-c1ccc(OC)c(=O)cc1[C@@H](NC(C)=O)CC2 [Colchicine, colchicine]", 0.25]
]}
